tested on: NCI/ADR-RES ovarian; test: NCI tumour cell line growth inhibition, 48 h
Measured GI50 of individual entries

CNNC(=N\S(=O)(=O)c1cc(C)c(Cl)cc1SCc1ccccc1)/N=C/c1ccc([N+](=O)[O-])s1 ... > 100 µM
CCN1CCN(Cc2ccc(NC(=O)Nc3nc4ccc(Oc5ccnc(C(=O)NC)c5)cc4s3)cc2C(F)(F)F)CC1 ... 1.95 µM
O=C1C2=C(C(=O)c3cnccc31)C1C=CC2CC1 (centres undefined) ... 1.51 µM

Bench note: what GI50 did CCOc1ccc2c(c1)C(=O)c1c-2n(CCCBr)c(=O)c2cc([N+](=O)[O-])ccc12 show? 9.06 µM

Next record, please: O=C(Nc1ccc(F)cc1F)c1cc(Cl)ccc1O 2.52 µM

The measurements presented in this section are drawn from PubChem BioAssay (NCI).
